Documented ED50 across a set of molecules
Test system: central 5HT
assay: inhibition of behavioural symptoms (forepaw tapping, head jerks, splayed limbs) induced by 5-methoxy-N,N-dimethyltryptamine in mice
Type: in vivo, mice (male CD-1 Charles Rine)
setup_conditions: Mus musculus, po, 1 h, p.o., 1 h pretreatment, 10 mg/kg ip 5-methoxy-N,N-dimethyltryptamine, read-out: ED50 (dose of compound inhibiting the symptoms by 50%)

The following molecules have reported results that may help.
- CN1CC2CC(=NO)c3cccc4c3N2C(C1)c1ccccc1C4 (centres unmarked): 3 mg/kg
- CN1CC2CC(=O)c3cccc4c3N2C(C1)c1ccccc1C4 (centres unmarked): 12 mg/kg
- CN1CC2CC(=O)c3cccc4c3N2C(C1)c1ccccc1O4 (centres unmarked): 10 mg/kg
- CN1CC2CC(O)c3cccc4c3N2C(C1)c1ccccc1C4 (single isomer, unassigned): 0.65 mg/kg

The record that follows has no ED50 shown yet.
In: For central 5HT, provide ED50 of CN1CC2CCc3cccc4c3N2C(C1)c1ccccc1C4 (centres unmarked) please.
Out: 10 mg/kg

src = patent US4442098A
